test_details: qHTS assay to identify small molecule agonists of H2AX (AID 1224845)
assay_setup: CHO-K1 phospho-H2AX Ser139 HTRF, 3 h; series mostly up to 154 µM
Inconclusive results are not listed. Active and inactive are the calls of the source. The call rests on the fitted dose curve; in most records, active means well fitted activation curve with a large enough effect in the signal ratio in the repeat runs (not every such curve was filed as active); inconclusive means weak or mixed curves; inactive means flat fitted curve, though single readings scatter; the % refers to the signal ratio.
# output must be one of T for active, F for inactive

How was CC(Cl)C(C)Cl (stereo not given) classified in this test?
F

How was CCCCC(CC)COP(=O)(Oc1ccccc1)Oc1ccccc1 (stereo not given) classified in this test?
F

How was O=C1CN=C(c2ccccc2)c2cc(Cl)ccc2N1CC1CC1 classified in this test?
F

How was CCBr classified in this test?
F

How was CC(=O)C(C)(C)C classified in this test?
F

How was CCCC(Cn1cncn1)c1ccc(Cl)cc1Cl (stereo not given) classified in this test?
F

How was C=CC(=O)OCC(C)O (stereo not given) classified in this test?
F

How was Clc1cc(C(Cl)(Cl)Cl)cnc1Cl classified in this test?
T

How was CCn1cc[n+](C)c1 classified in this test?
F

How was CCN(C)N=O classified in this test?
F

How was CCOS(C)(=O)=O classified in this test?
F

How was CC(C)=CCOc1c2occc2cc2ccc(=O)oc12 classified in this test?
F

How was II classified in this test?
F

How was COC(N)=O classified in this test?
F

How was C=CC(=O)NCNC(=O)C=C classified in this test?
F

How was COP(=S)(OC)Oc1cc(Cl)c(I)cc1Cl classified in this test?
F

How was O=C(O)C(F)(F)C(F)(F)C(F)(F)C(F)(F)C(F)(F)C(F)(F)C(F)(F)C(F)(F)C(F)(F)C(F)(F)F classified in this test?
F

How was CCCCCC[N+](=O)[O-] classified in this test?
F

How was O=C(OC1CCCCC1)c1ccccc1C(=O)OC1CCCCC1 classified in this test?
F

How was COP(=S)(Oc1cc(Cl)c(Br)cc1Cl)c1ccccc1 (stereo not given) classified in this test?
F
